- assay_target: 17-beta-hydroxysteroid dehydrogenase type 3 (Homo sapiens)
- test_details: Inhibitory concentration against type-3 17-beta-HSD expressed in HEK293 cells
measurement_label: IC50 (µM)

1) C[C@]12CCC(=O)C=C1CC[C@@H]1[C@@H]2CC[C@]2(C)C(=O)CC[C@@H]12 | 0.758
2) C[C@]12CC[C@](O)(C3CCCCC3)CC1CC[C@@H]1[C@@H]2CC[C@]2(C)C(=O)CC[C@@H]12 (some centres not stated) | 0.097
3) C[C@]12CC[C@](O)(CCC3CCCCC3)CC1CC[C@@H]1[C@@H]2CC[C@]2(C)C(=O)CC[C@@H]12 (some centres not stated) | 0.06
4) CCCCCC[C@@]1(O)CC[C@@]2(C)C(CC[C@@H]3[C@@H]2CC[C@]2(C)C(=O)CC[C@@H]32)C1 (some centres not stated) | 0.1
5) C[C@]12CC[C@](O)(CCc3ccccc3)CC1CC[C@@H]1[C@@H]2CC[C@]2(C)C(=O)CC[C@@H]12 (some centres not stated) | 0.099
6) C[C@]12CC[C@](O)(c3ccccc3)CC1CC[C@@H]1[C@@H]2CC[C@]2(C)C(=O)CC[C@@H]12 (some centres not stated) | 0.081
7) CCCCCCCC[C@@]1(O)CC[C@@]2(C)C(CC[C@@H]3[C@@H]2CC[C@]2(C)C(=O)CC[C@@H]32)C1 (some centres not stated) | 0.147

----------
- assay_target: UniProtKB P37058
- test_details: Percent inhibition against type-3 17-beta-HSD expressed in HEK293 cells at 0.3 uM
- Type: cell-based
# reported inhibition; entries follow
measurement_label: inhibition (%)

1) C[C@]12CC[C@@H](O)C[C@H]1CC[C@@H]1[C@@H]2CC[C@]2(C)C(=O)CC[C@@H]12 | 50
2) C[C@]12CC[C@](O)(Cc3ccccc3)CC1CC[C@@H]1[C@@H]2CC[C@]2(C)C(=O)CC[C@@H]12 (stereo not given in full) | 90
3) C[C@]12CCC(=O)C=C1CC[C@@H]1[C@@H]2CC[C@]2(C)C(=O)CC[C@@H]12 | 24
4) CCCCCCCC[C@@]1(O)CC[C@@]2(C)C(CC[C@@H]3[C@@H]2CC[C@]2(C)C(=O)CC[C@@H]32)C1 (stereo not given in full) | 88
5) CCCCCC[C@@]1(O)CC[C@@]2(C)C(CC[C@@H]3[C@@H]2CC[C@]2(C)C(=O)CC[C@@H]32)C1 (stereo not given in full) | 93

----------
- assay_target: UniProt P37058
- Sequence (whole entry): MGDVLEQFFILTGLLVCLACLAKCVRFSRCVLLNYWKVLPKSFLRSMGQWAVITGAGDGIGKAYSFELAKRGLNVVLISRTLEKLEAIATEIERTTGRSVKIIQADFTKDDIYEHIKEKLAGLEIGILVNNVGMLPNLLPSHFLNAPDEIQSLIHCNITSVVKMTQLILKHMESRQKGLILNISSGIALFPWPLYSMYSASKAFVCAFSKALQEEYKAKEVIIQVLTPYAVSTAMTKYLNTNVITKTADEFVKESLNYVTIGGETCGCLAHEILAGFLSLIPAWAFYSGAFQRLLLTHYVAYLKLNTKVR
- test_details: Percent inhibition against type-3 17-beta-HSD expressed in HEK293 cells at 0.3 uM
- Type: cell-based
Class rule met: inhibition at least 90%. Class rule not met: inhibition below 90%.

1. C[C@]12CC[C@](O)(CC3CCCCC3)CC1CC[C@@H]1[C@@H]2CC[C@]2(C)C(=O)CC[C@@H]12 (stereo partly drawn) | rule met
2. C[C@@]1(O)CC[C@@]2(C)C(CC[C@@H]3[C@@H]2CC[C@]2(C)C(=O)CC[C@@H]32)C1 (stereo partly drawn) | rule not met
3. CCC(C)[C@@]1(O)CC[C@@]2(C)C(CC[C@@H]3[C@@H]2CC[C@]2(C)C(=O)CC[C@@H]32)C1 (stereo partly drawn) | rule not met
4. C[C@]12CC[C@](O)(CCc3ccccc3)CC1CC[C@@H]1[C@@H]2CC[C@]2(C)C(=O)CC[C@@H]12 (stereo partly drawn) | rule met

----------
inhibition reference
- assay_target: UniProtKB P37058
- test_details: Percent inhibition against type-3 17-beta-HSD expressed in HEK293 cells at 3 uM
- Assay type: cell-based
measurement_label: inhibition (%)

1) C[C@]12CC[C@](O)(CCc3ccccc3)CC1CC[C@@H]1[C@@H]2CC[C@]2(C)C(=O)CC[C@@H]12 (stereo partly drawn) | 93
2) CCCCCCCC[C@@]1(O)CC[C@@]2(C)C(CC[C@@H]3[C@@H]2CC[C@]2(C)C(=O)CC[C@@H]32)C1 (stereo partly drawn) | 92
3) C[C@]12CCC(=O)C=C1CC[C@@H]1[C@@H]2CC[C@]2(C)C(=O)CC[C@@H]12 | 78

----------
- assay_target: 17-beta-hydroxysteroid dehydrogenase type 3 (Homo sapiens) (UniProt P37058)
- test_details: Percent inhibition against type-3 17-beta-HSD expressed in HEK293 cells at 0.3 uM
- Assay type: cell-based
measurement_label: inhibition (%)

1. C[C@]12CC[C@](O)(CCC3CCCCC3)CC1CC[C@@H]1[C@@H]2CC[C@]2(C)C(=O)CC[C@@H]12 (some centres undefined) | 92
2. CCC[C@@]1(O)CC[C@@]2(C)C(CC[C@@H]3[C@@H]2CC[C@]2(C)C(=O)CC[C@@H]32)C1 (some centres undefined) | 89
3. C[C@]12CC[C@](O)(C3CCCCC3)CC1CC[C@@H]1[C@@H]2CC[C@]2(C)C(=O)CC[C@@H]12 (some centres undefined) | 88
4. C[C@]12CC[C@](O)(c3ccccc3)CC1CC[C@@H]1[C@@H]2CC[C@]2(C)C(=O)CC[C@@H]12 (some centres undefined) | 88

Where do the numbers come from? From ChEMBL document CHEMBL1133052.
